In this section, each of the compounds is paired with its reported MIC.
System: C. globosum (soft rot decay fungi)
protocol: agar dilution plate method, wood rot fungi (MIC, IC50, percent retardation)
Format: cell-based
settings: Chaetomium globosum; azole alone; read-out: C. globosum MIC

compound	sign	MIC / µg/mL
N#CC(CCc1ccc(Cl)cc1)(Cn1cncn1)c1ccccc1 (centres unmarked) [Fenbuconazole, fenbuconazole]	=	50
CC(C1CC1)C(O)(Cn1cncn1)c1ccc(Cl)cc1 (centres unmarked) [Cyproconazole, cyproconazole]	=	25
CCCC1COC(Cn2cncn2)(c2ccc(Cl)cc2Cl)O1 (centres unmarked) [Propiconazole, propiconazole]	>	50
CCCCC(C#N)(Cn1cncn1)c1ccc(Cl)cc1 (centres unmarked) [Myclobutanil, myclobutanil]	>	50

---

// reported Qa, concentration of amine oxide alone required to yield 100% retardation, G. trabeum for each item listed
System: G. trabeum (brown rot fungi)
protocol: agar dilution plate method, wood rot fungi (MIC, IC50, percent retardation)
Format: cell-based
settings: amine oxide alone
observation type: Qa, concentration of amine oxide alone required to yield 100% retardation, G. trabeum (ppm)

compound	unit info	observed measurement
CCCCCCCCCC[N+](C)(C)[O-] [Decyl-DMAO, decyl dimethylamine oxide]	ppm	250
CCCCCCCCCCCCCC[N+](C)(C)[O-] [Tetradecyl-DMAO, tetradecyl dimethylamine oxide]	ppm	1000
CCCCCCCCCCCCCCCCCC[N+](C)(C)[O-] [Octadecyl-DMAO, octadecyl dimethylamine oxide]	ppm	1000
CCCCCCCCCCCC[N+]1([O-])CCOCC1 [Lauryl morpholine N-oxide, lauryl morpholine N-oxide]	ppm	1000
CCCCCCCCCCCCCCCC[N+](C)(C)[O-] [Hexadecyl-DMAO, hexadecyl dimethylamine oxide]	ppm	1000
CCCCCCCCCCCCCCCCCCCCCC[N+](C)(C)[O-] [Behenyl DMAO]	ppm	1000
CCCCCCCCCCCC[N+](C)(C)[O-] [Dodecyl-DMAO, dodecyldimethylamine oxide]	ppm	250
CCCCCCCC[N+](C)(C)[O-] [Octyldimethylamine oxide, octyl dimethylamine oxide]	ppm	1000

---

Tested on: P. placenta (brown rot fungi)
protocol: agar dilution plate method, wood rot fungi (MIC, IC50, percent retardation)
Type: cell-based
settings: azole alone; read-out: P. placenta MIC
Recorded MIC by entry
observation type: MIC (µg/mL)

compound	observed measurement
CC(C)(C)C(O)(CCc1ccc(Cl)cc1)Cn1cncn1 (centres unmarked)	50
CCCCC(C#N)(Cn1cncn1)c1ccc(Cl)cc1 (centres unmarked)	50
CC(C1CC1)C(O)(Cn1cncn1)c1ccc(Cl)cc1 (centres unmarked)	2.5
N#CC(CCc1ccc(Cl)cc1)(Cn1cncn1)c1ccccc1 (centres unmarked)	25
CCCC1COC(Cn2cncn2)(c2ccc(Cl)cc2Cl)O1 (centres unmarked)	50

---

Tested on: G. trabeum (brown rot fungi)
protocol: agar dilution plate method, wood rot fungi (MIC, IC50, percent retardation)
Type: cell-based
settings: Gloeophyllum trabeum; amine oxide alone; 100% growth retardation; read-out: MIC (ppm of amine oxides) G. trabeum
observation type: MIC (µg/mL)

molecule	observation type	sign	observed measurement
CCCCCCCCCCCC[N+](C)(C)[O-] [Dodecyl-DMAO, dodecyldimethylamine oxide]	MIC	=	250
CCCCCCCC[N+](C)(C)[O-] [Octyldimethylamine oxide, octyl dimethylamine oxide]	MIC	=	1000
CCCCCCCCCCCCCC[N+](C)(C)[O-] [Tetradecyl-DMAO, tetradecyl dimethylamine oxide]	MIC	>	1000
CCCCCCCCCC[N+](C)(C)[O-] [Decyl-DMAO, decyl dimethylamine oxide]	MIC	=	250
CCCCCCCCCCCCCCCC[N+](C)(C)[O-] [Hexadecyl-DMAO, hexadecyl dimethylamine oxide]	MIC	>	1000
CCCCCCCCCCCCCCCCCC[N+](C)(C)[O-] [Octadecyl-DMAO, octadecyl dimethylamine oxide]	MIC	>	1000
